# assayProtocol: melting temperature; fluorescence melt of hairpins on a sequencing array, two-state fit, raised by 9.35 °C to match UV melts
# conditionNotes: sodium 0.088 M
measureName: Tm (°C)
# value in °C; strip the unit string

Some solved cases for reference:
>  <sequenceRecord>
GGAGAACGAAAGTTGTCC (((.(((....))).)))

>  <Tm (°C)>
51.5

$$$$
>  <sequenceRecord>
GCCTATGGAAACGTAGGC (((((.(....).)))))

>  <Tm (°C)>
51.1

$$$$

Now look at this one.
Need Tm, item GGAACGGGAAACCGCTCC (((.(((....))).))) 48.7

* * *

Readings of folding enthalpy for the listed sequences
# assayProtocol: folding enthalpy; higher = less favourable; fluorescence melt of hairpins on a sequencing array, two-state fit
# conditionNotes: sodium 0.088 M
// note: answer is a bare numeric in kcal/mol

Study these solved cases before continuing.
>  <sequenceRecord>
GGGGCTGGAAACGGCCTC (.(((.(....).))).)

>  <folding enthalpy / kcal/mol>
-20.8

$$$$
>  <sequenceRecord>
GATCTGGGAACAGATC ((((((....))))))

>  <folding enthalpy / kcal/mol>
-39.8

$$$$
>  <sequenceRecord>
GATCTTTGAGAAGATC ((((((....))))))

>  <folding enthalpy / kcal/mol>
-31.6

$$$$

Param item = GCTGTCGGAAACGACAAC (.(((((....))))).) ; retrieve measured folding enthalpy. -12.9

Fill in: folding enthalpy of GGTTAGGGAAACCTGACC (((.(((....))).))) is ___ -33

Could you share which folding enthalpy value was measured for GATCGTTAAAACGATC ((((((....)))))) ? -35.6

Entry GAGCCCGAAAGGGGCCTC ((((((....)))..))) has what folding enthalpy? -13.5

Look up folding enthalpy for this sequence: GCTGCCGAAAGGCTTAGC ((((((....)))..))) -16.1

Reported folding enthalpy for GGTTCTCCGAAAGGAACC (((..(((....)))))) : what is it? -20.8

Please report the recorded folding enthalpy for TACTCGAAAGAGTA (((((....))))) . -18.1

Field request: folding enthalpy | item: GTTAGAGGAAACCCTAAC (((((.(....).))))) -17.9

* * *

# assayProtocol: folding enthalpy; higher = less favourable; fluorescence melt of hairpins on a sequencing array, two-state fit
# conditionNotes: sodium 0.088 M
Assign a class from recorded folding enthalpy; defined classes: bucket A: < -30 kcal/mol; bucket B: ≥ -30 kcal/mol and < -20 kcal/mol; bucket C: ≥ -20 kcal/mol

>  <sequenceRecord>
GGCTACGAAAGTAATGCC ((((((....)))..)))

>  <assignedCategory>
bucket B

$$$$
>  <sequenceRecord>
GGAAGCGAAAGCTAATCC ((((((....)))..)))

>  <assignedCategory>
bucket C

$$$$
>  <sequenceRecord>
GCAGGAGGAAACTCTTGC (((.(((....))).)))

>  <assignedCategory>
bucket A

$$$$
>  <sequenceRecord>
GATCTGCCGAAAGGCATC (((..(((....))))))

>  <assignedCategory>
bucket C

$$$$
>  <sequenceRecord>
GCGTAATCACGC ((((....))))

>  <assignedCategory>
bucket B

$$$$
>  <sequenceRecord>
GATCGCCCTGCGATC ((((((...))))))

>  <assignedCategory>
bucket A

$$$$

Exam item: assign GCGGCTCCCCGC ((((....)))) to the correct category. bucket B

Which class does GAACGGCCGAAAGGCTTC (((..(((....)))))) fall in? bucket C

Band assignment needed for GATCGTTCATACGATC ((((((....)))))) please. bucket A

* * *

Form field: folding enthalpy (one value per entry).
# assayProtocol: folding enthalpy; higher = less favourable; fluorescence melt of hairpins on a sequencing array, two-state fit
# conditionNotes: sodium 0.088 M
The reply must contain the numeric value and, after it, the unit.

>  <sequenceRecord>
CGTGCGGAAACGCTCACG ((((((....)))..)))

>  <measureName>
folding enthalpy

>  <measuredResult>
-18.3 kcal/mol

$$$$
>  <sequenceRecord>
GAGAGCGAAAGCTTGCTC ((((((....)))..)))

>  <measureName>
folding enthalpy

>  <measuredResult>
-10.4 kcal/mol

$$$$
>  <sequenceRecord>
GACAGTCCGAAAGGAGTC (((..(((....))))))

>  <measureName>
folding enthalpy

>  <measuredResult>
-17 kcal/mol

$$$$
>  <sequenceRecord>
GACACACGAAAGTGCGTC (((.(((....))).)))

>  <measureName>
folding enthalpy

>  <measuredResult>
-45.2 kcal/mol

$$$$
>  <sequenceRecord>
GCTTCGGGAAACCGAAAC (.(((((....))))).)

>  <measureName>
folding enthalpy

>  <measuredResult>
-15.4 kcal/mol

$$$$

Which measured folding enthalpy value corresponds to GTTGTTGAAAAACAAC ((((((....)))))) ? -38.2 kcal/mol

* * *

Entries and their folding enthalpy
# assayProtocol: folding enthalpy; higher = less favourable; fluorescence melt of hairpins on a sequencing array, two-state fit
# conditionNotes: sodium 0.088 M
Please give a number only; it is taken to be in kcal/mol.

Bench note: what folding enthalpy did GATCACGTAAGTGATC ((((((....)))))) show? -30.8

What value of measured folding enthalpy is listed for GATCTCGGTCGAGATC ((((((....)))))) ? -41.5

Report folding enthalpy for GATCAGTCCCCTGATC ((((((....)))))) please. -35.7

Can you look up the measured folding enthalpy of GCGAATGGAAACACTCGC ((((.((....)).)))) for me? -35.2

Sample GATCATACAATGATC ((((((...)))))) — what was its folding enthalpy? -39.5

folding enthalpy lookup needed for GATCCACCAATGGATC ((((((....)))))) , thanks. -36.4

Could you tell me which folding enthalpy is on file for GTCGGCCGAAAGGCGAC (((.(((....)))))) ? -21.9

So what does the record say about folding enthalpy for GCGGACGAAAGTCTACGC ((((((....)))..))) ? -28.8

Fill in the blank: the reported folding enthalpy of GGCGGTGGAAACGTCGCC ((((..(....)..)))) is ____. -33.8

* * *

# assayProtocol: folding enthalpy; higher = less favourable; fluorescence melt of hairpins on a sequencing array, two-state fit
# conditionNotes: sodium 0.088 M
measureName: folding enthalpy (kcal/mol)
Please give a number only; it is taken to be in kcal/mol.

Example sequences with recorded folding enthalpy:
>  <sequenceRecord>
GACCCCGAAAGGGTGTC ((((((....))).)))

>  <folding enthalpy (kcal/mol)>
-26.6

$$$$
>  <sequenceRecord>
GCAGGGCGAAAGCCTTGC (((.(((....))).)))

>  <folding enthalpy (kcal/mol)>
-40.3

$$$$
>  <sequenceRecord>
GGTATCGGAAACGATACC (((((((....)))))))

>  <folding enthalpy (kcal/mol)>
-48.7

$$$$
>  <sequenceRecord>
GCCAAACGAAAGTTGGGC (((.(((....))).)))

>  <folding enthalpy (kcal/mol)>
-37.2

$$$$
>  <sequenceRecord>
GCTAGGCCGAAAGGCAGC (((..(((....))))))

>  <folding enthalpy (kcal/mol)>
-15.1

$$$$
>  <sequenceRecord>
GATCGTTCGAACGATC ((((((....))))))

>  <folding enthalpy (kcal/mol)>
-53.9

$$$$
>  <sequenceRecord>
GCATAGAAATATGC (((((....)))))

>  <folding enthalpy (kcal/mol)>
-21.9

$$$$
>  <sequenceRecord>
GTGCGCGAAAGCGTTCAC ((((((....)))..)))

>  <folding enthalpy (kcal/mol)>
-11.3

$$$$
>  <sequenceRecord>
CCCCAGAAATGGGG (((((....)))))

>  <folding enthalpy (kcal/mol)>
-16

$$$$
>  <sequenceRecord>
GATCCGCATCCGGATC ((((((....))))))

>  <folding enthalpy (kcal/mol)>
-38

$$$$

folding enthalpy for CGCCGCGGAAACGCAGCG (((.(((....))).))) ? -37.5

Return reported folding enthalpy; argument: GGTGGCGAAAGCCCAACC ((((((....)))..))) -14.8

Item GGTTCCGAAAGGACTACC ((((((....)))..))) has what recorded folding enthalpy? -15.3

Can you look up the measured folding enthalpy of GATCGTCTGGACGATC ((((((....)))))) for me? -42.6

Would you kindly share the measured folding enthalpy for GATCACCTCTGTGATC ((((((....)))))) ? -42.2

* * *

# assayProtocol: folding enthalpy; higher = less favourable; fluorescence melt of hairpins on a sequencing array, two-state fit
# conditionNotes: sodium 0.088 M
We begin with a simple list: items and their reported folding enthalpy.
Number only, in kcal/mol; omit the unit.

Reference set, count: 5
>  <sequenceRecord>
GTATGCGGAAACACATAC (((((.(....).)))))

>  <folding enthalpy, kcal/mol>
-32.8

$$$$
>  <sequenceRecord>
GCGGAGCGAAAGCCCTGC ((.(.((....)).).))

>  <folding enthalpy, kcal/mol>
-10.6

$$$$
>  <sequenceRecord>
GTCGTCGAAAGACCAGAC ((((((....)))..)))

>  <folding enthalpy, kcal/mol>
-16.6

$$$$
>  <sequenceRecord>
GTGCCGGGAAACCGGCGC (.(((((....))))).)

>  <folding enthalpy, kcal/mol>
-18.2

$$$$
>  <sequenceRecord>
GGAATCGAAAGATCCTCC ((((((....)))..)))

>  <folding enthalpy, kcal/mol>
-21.4

$$$$

Fill in: folding enthalpy of GCGCACCCGAAAGGGCGC (((..(((....)))))) is ___ -20.5

What does the record list as folding enthalpy for GATGGGCCGAAAGGCATC (((..(((....)))))) ? -9.87

Form field: reported folding enthalpy of GATCTTTGTAAAGATC ((((((....)))))) -34.3

I would be grateful if you could share the reported folding enthalpy for GATCAACGATTTGATC ((((((....)))))) . -24.9

I would be grateful if you could share the reported folding enthalpy for GTGGATGGAAACACCCAC ((((.((....)).)))) . -32.6

Report folding enthalpy for GGAACACGAAAGTGCTCC (((.(((....))).))) please. -40.7

Reported folding enthalpy for GTAATTGGAAACAATTGC (.(((((....))))).) : what is it? -26.5
